# System: HIF transcriptional activity
# measurement.notes: HIF-dependent luciferase reporter assay (FLuc/RLuc ratio) in Hep3B-c1 cells
# Format: cell-based
# assay.setup: Homo sapiens, 1% O2, 24 hours, read-out: IC50, inhibition of HIF-dependent reporter gene expression
assay.metric: IC50 (nM)
Provide the reading as a plain figure in nM.

In the examples that follow, each entry is paired with its recorded IC50.
Brc1ccc2c(-c3csc(-c4c[nH]c5c(Br)cccc45)n3)c[nH]c2c1 [Compound 32-134D]; 2500
Brc1ccc2c(-c3nc(-c4c[nH]c5ccc(Br)cc45)cs3)c[nH]c2c1 [Compound 11-88, reference compound]; 2900

IN: Which IC50 is reported with HIF transcriptional activity for this entry: c1ccc2c(-c3nsc(-c4c[nH]c5ccccc45)n3)c[nH]c2c1 [Compound 33-063] ?
OUT: 2200
